Molecular target: HCV NS3 helicase NS3h_1b(con1) (Hepatitis C virus genotype 1b, UniProt Q9WMX2)
Construct: truncated C-terminally His-tagged NS3 proteins lacking the N-terminal protease, called NS3h; His-tag (C); made in house
Sequence (Q9WMX2 1192-1657): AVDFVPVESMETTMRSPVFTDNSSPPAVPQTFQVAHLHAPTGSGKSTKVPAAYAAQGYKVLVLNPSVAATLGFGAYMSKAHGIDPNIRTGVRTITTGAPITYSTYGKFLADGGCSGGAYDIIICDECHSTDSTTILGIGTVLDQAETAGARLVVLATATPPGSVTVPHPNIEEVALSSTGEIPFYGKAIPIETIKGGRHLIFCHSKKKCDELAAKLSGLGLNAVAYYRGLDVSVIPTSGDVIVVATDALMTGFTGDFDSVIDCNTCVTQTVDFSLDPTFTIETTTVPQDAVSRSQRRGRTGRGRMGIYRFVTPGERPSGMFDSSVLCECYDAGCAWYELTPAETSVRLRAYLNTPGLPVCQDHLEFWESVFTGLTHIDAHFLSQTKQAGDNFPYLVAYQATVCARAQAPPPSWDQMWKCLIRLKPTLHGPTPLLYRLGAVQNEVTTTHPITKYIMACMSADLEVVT
Assay: MBHA screen of NCI mechanistic set library at 20 μM (percent inhibition, compound interference)
Type: biochemical
Details: compounds at 20 μM, MBHA with DNA substrate; calculated from Equation 1
Description: All molecular beacon-based helicase assays (MBHAs) were performed according to known methods (Belon & Frick (2008) supra; Belon & Frick (2009) supra). […] Fluorescence was read before ATP (F0) addition and 30 minutes after ATP was added to 1 mM (F30) using a Tecan Infinite M200 fluorescence microplate reader with excitation and emission wavelengths set to 643 and 670 nm, respectively. […]
Measured Inh. (%) (Inhibition) accompanies every entry in the list below.
Numbers only here, please. The scale is %.

Check out these entries, answers already filled in.
{"columns": ["MOLECULE", "MEAS_VALUE"],
 "data": [
  ["COC1CC(CC2CCC(C)C(C(C)C(=O)O)O2)OC2(OC(C)(C3CCC(C)(C4OC(C5OC(O)(CO)C(C)CC5C)CC4C)O3)CC2C)C1C (centres unmarked) [Compound 292567]", "−11.3"],
  ["Cc1cccc(NC(=O)/C=C/c2ccc([N+](=O)[O-])cc2)c1 [Compound 139109]", "−1.2"],
  ["O=C1C=C(Nc2ccccc2C(=O)CC(=O)C(=O)Nc2ccc(Cl)c(Cl)c2)c2ccccc2C1=O [Compound 641250]", "−13.6"],
  ["CN(C)C(=S)SSC(=S)N(C)C [Compound 1771]", 0.2]
]}

According to the records, this molecule CCC(=O)OC1CCn2c1nc1c2C(=O)C(C)=C(N2CC2)C1=O (centres unmarked) [Compound 651079] displays Inh. (%) (Inhibition) of −16.7
